Just for reference, ChEMBL document CHEMBL3351298 is where these values come from.

These records show IC50 for UniProt O42275.
Sequence (O42275 whole entry): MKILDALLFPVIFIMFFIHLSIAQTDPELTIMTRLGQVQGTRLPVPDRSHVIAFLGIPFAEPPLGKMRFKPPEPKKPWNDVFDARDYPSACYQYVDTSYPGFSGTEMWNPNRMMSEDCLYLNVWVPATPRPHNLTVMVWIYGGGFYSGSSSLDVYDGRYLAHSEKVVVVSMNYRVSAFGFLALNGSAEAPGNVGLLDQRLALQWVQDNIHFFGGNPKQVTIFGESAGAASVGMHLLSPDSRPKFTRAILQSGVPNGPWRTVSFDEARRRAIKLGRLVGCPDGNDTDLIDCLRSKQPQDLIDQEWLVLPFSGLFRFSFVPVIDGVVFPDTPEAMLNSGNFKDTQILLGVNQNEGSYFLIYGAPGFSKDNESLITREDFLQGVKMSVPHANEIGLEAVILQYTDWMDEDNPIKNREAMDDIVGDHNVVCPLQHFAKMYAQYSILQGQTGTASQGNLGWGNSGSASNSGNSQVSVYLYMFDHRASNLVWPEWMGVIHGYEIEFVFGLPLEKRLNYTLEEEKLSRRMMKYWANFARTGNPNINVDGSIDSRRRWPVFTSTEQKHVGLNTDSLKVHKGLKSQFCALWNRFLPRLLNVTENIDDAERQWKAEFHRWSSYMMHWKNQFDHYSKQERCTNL
Field: numeric (µM). Do not append units.

Some entries whose results are on file:
>>> reading("N[C@@H](Cc1c[nH]c2ccccc12)C(=O)NCCCCCCNc1c2c(nc3ccccc13)CCCC2")
0.0516
>>> reading("O=C(NCCCCCCNc1c2c(nc3ccccc13)CCCC2)[C@@H]1Cc2c([nH]c3ccccc23)CN1")
0.0216
>>> reading("Cc1nc(C(=O)NCCCCCCCCCCNc2c3c(nc4ccccc24)CCCC3)cc2c1[nH]c1ccccc12")
0.783

Moving on to the next compound.
# input compound: CC(C)(C)OC(=O)N1Cc2[nH]c3ccccc3c2C[C@H]1C(=O)NCCCCCCNc1c2c(nc3ccccc13)CCCC2 ; wanted: its IC50
# output 0.141
